This collection of values is drawn from patent US12448388B2.

assay: Cell viability assay (CellTiter-Glo, 7 days), HCT116 WT
Type: cell-based
experimental-setup: human, HCT116 WT cells, 7 days of treatment, CTG
Each entry below carries its recorded CC50 at 7 days.
Please state the figure in µM; there is no need to write the unit.

The recorded CC50 at 7 days for entry [2H]C1([2H])CC[C@@H]2Oc3cc(C(F)(F)F)ccc3[C@@H]2N1C(=O)c1cc2c(cn1)nc(N)c1cncn12 [Fg-60] equals 0.683

The reported value for Nc1nc2cnc(C(=O)N3CCC[C@@H]4Oc5cc(C(F)(F)F)c(F)cc5[C@@H]43)cc2n2cncc12 [Ff-115] in terms of CC50 at 7 days is 0.478

Further cases:
The value of CC50 at 7 days measured for the molecule Cc1ncc2c(N)nc3ccc(C(=O)N4CCC[C@@H]5Oc6cc(C(F)(F)F)ccc6[C@@H]54)cc3n12 [Ff-345] turned out to be 3.62

Reported CC50 at 7 days ( Nc1nc2cnc(C(=O)N3C[C@H](F)CC4Oc5cc(C(F)(F)F)ccc5[C@@H]43)cc2n2cncc12 (mixture of isomers) [Ff-113] ) = 2.57
